Target: Human PXR (Homo sapiens)
Sequence (O75469 107-434): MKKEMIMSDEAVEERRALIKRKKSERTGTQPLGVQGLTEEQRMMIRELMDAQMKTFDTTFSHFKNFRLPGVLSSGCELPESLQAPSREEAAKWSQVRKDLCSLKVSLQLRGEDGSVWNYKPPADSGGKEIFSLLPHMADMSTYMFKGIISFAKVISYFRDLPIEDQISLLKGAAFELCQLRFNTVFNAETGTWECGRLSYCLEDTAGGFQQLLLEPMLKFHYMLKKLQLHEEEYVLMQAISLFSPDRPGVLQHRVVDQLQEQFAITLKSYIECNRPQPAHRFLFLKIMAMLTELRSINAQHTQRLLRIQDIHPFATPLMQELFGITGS
Conditions: maximum response as percentage of the maximum response to rifampicin
Attribute: Human PXR Relative activation (%)
Lab book: enter the figure in %, no units written.

Solved cases below.
>  <compound>
Clc1cccc(Cl)c1Cl

>  <test_target>
Human PXR (Homo sapiens)

>  <measured_property>
Human PXR Relative activation (%)

>  <unit_name>
%

>  <recorded_number>
9

$$$$
>  <compound>
Clc1cc(Cl)c(-c2c(Cl)cc(Cl)c(Cl)c2Cl)cc1Cl

>  <test_target>
Human PXR (Homo sapiens)

>  <measured_property>
Human PXR Relative activation (%)

>  <unit_name>
%

>  <recorded_number>
28

$$$$
>  <compound>
Clc1ccc(C(c2ccc(Cl)cc2)C(Cl)(Cl)Cl)cc1

>  <test_target>
Human PXR (Homo sapiens)

>  <measured_property>
Human PXR Relative activation (%)

>  <unit_name>
%

>  <recorded_number>
53

$$$$
>  <compound>
Clc1ccc(Cl)c(-c2cc(Cl)ccc2Cl)c1

>  <test_target>
Human PXR (Homo sapiens)

>  <measured_property>
Human PXR Relative activation (%)

>  <unit_name>
%

>  <recorded_number>
11

$$$$
>  <compound>
Brc1ccc(Oc2ccc(Br)cc2Br)cc1

>  <test_target>
Human PXR (Homo sapiens)

>  <measured_property>
Human PXR Relative activation (%)

>  <unit_name>
%

>  <recorded_number>
31

$$$$

Any idea what Human PXR Relative activation (%) was measured for "Clc1ccc(-c2c(Cl)c(Cl)c(Cl)c(Cl)c2Cl)cc1Cl" ?
46

Any idea what Human PXR Relative activation (%) was measured for "Brc1c(Br)c(Br)c(Oc2c(Br)c(Br)c(Br)c(Br)c2Br)c(Br)c1Br" ?
26

Any idea what Human PXR Relative activation (%) was measured for "Clc1cc(Cl)c(-c2c(Cl)cc(Cl)c(Cl)c2Cl)c(Cl)c1" ?
33

Any idea what Human PXR Relative activation (%) was measured for "C[Si]1(C)O[Si](C)(C)O[Si](C)(C)O[Si](C)(C)O1" ?
44

Any idea what Human PXR Relative activation (%) was measured for "Clc1ccc(-c2ccc(Cl)cc2Cl)cc1" ?
19

Any idea what Human PXR Relative activation (%) was measured for "Clc1ccc(Cl)c(Cl)c1" ?
10

Any idea what Human PXR Relative activation (%) was measured for "Brc1ccc(Oc2cc(Br)c(Br)cc2Br)c(Br)c1" ?
52

Any idea what Human PXR Relative activation (%) was measured for "Brc1cc(Br)c(Oc2cc(Br)c(Br)cc2Br)cc1Br" ?
45

Any idea what Human PXR Relative activation (%) was measured for "O=C(O)C(F)(F)C(F)(F)C(F)(F)C(F)(F)C(F)(F)C(F)(F)C(F)(F)C(F)(F)F" ?
11

Any idea what Human PXR Relative activation (%) was measured for CC1(C)C(C(Cl)Cl)C2(Cl)C(Cl)C(Cl)C1(Cl)C2(Cl)Cl (centres unmarked) ?
47
